# ASSAY OVERVIEW: Hemolytic activity in human RBC at effective concentration measured after 1 hr by absorbance based assay relative to control
# Assay type: toxicity, cell-based, Erythrocyte
# CONDITION NOTES: red blood cells (erythrocytes), read-out: Activity
ASSAY ENDPOINT: hemolysis at 1 h

Which hemolysis at 1 h is reported for this molecule? OCCN(CCO)c1nccc(-n2cncn2)n1
< 5%

###

# Tested on: Escherichia coli
# ASSAY OVERVIEW: Antibacterial activity against Escherichia coli assessed as bacterial growth inhibition incubated for 24 hrs by broth microdilution method
# Type: functional
Exercise: state measured MIC for each of the compounds provided.
Entry format: amount then unit.

                                   compound  data_value
0                   CN(C)c1nccc(-n2cncn2)n1     1350 µM
1             CCc1nccn1-c1ccnc(N(CCO)CCO)n1      924 µM
2  O=C1c2cccc3c(N4CCN(c5nccc(-n6cncn6)n5)CC4)ccc(c23)C(=O)N1C(CO)CO      512 µM
3        CC(=O)N1CCN(c2nccc(-n3cncn3)n2)CC1      937 µM
4    O=C(CCCCl)N1CCN(c2nccc(-n3cncn3)n2)CC1      382 µM

Kindly give each listed record's MIC.
1. CO/N=C(/C(=O)N1CCN(c2nccc(-n3cncn3)n2)CC1)c1csc(N)n1
2. OCCN(CCO)c1nccc(-n2cnc3cc(Br)ccc32)n1
3. CCN(CCO)c1nccc(-n2cncn2)n1
4. CC(=O)Nc1ccc(S(=O)(=O)N2CCN(c3nccc(-n4cncn4)n3)CC2)cc1
5. Cc1nccn1-c1ccnc(N(CCO)CCO)n1

1. 294 µM
2. 1360 µM
3. 1090 µM
4. 598 µM
5. 973 µM
